Assay: protein stability index of a GFP-peptide fusion (GPS, HEK-293T) (PSI 1-6); higher = more stable;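 note: 24-mer peptide tiles fused after GFP, lentivirally expressed, FACS-sorted into six equal bins by GFP/DsRed ratio, decoded by Illumina sequencing, PSI is the read-weighted mean bin number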
Settings: treatment: MLN4924 1 uM, 8 h; c terminus: a fixed tail appended
MEASUREMENT_LABEL: protein stability index

                       residue_codes  meas_value
0   RRERNNIAVRKSRDKAKMRNLETQ [CEBPB]         4.5
1   LYRSRMNSLEMTPAVRQRVIEEAK [HMOX1]        4.06
2  VRSQTLPRTSEAQARKALFEKWEQ [SMTNL2]        4.16
3   ETLITTIDSSSSWWTNWVIPAISA [CYB5A]        2.48
